A collection of molecules and their measured inhibition
Assay: M. tuberculosis growth inhibition, HTS (AID 449762);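 also: bacterial growth assessed after seven days of incubation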
Details: M. tuberculosis H37Rv growth inhibition, 7H9 media; at 25 µM; hits give high values
The whole screen tested about 330,000 compounds, of which about 1,900 (0.58%) were called active. Not shown: some 4% with an inconclusive outcome. Not all results are given here. Results with a measured potency or affinity are listed apart.
Express it in %; write the number only.

Use the examples below as a reference point.
Inquiry: Identify the reported inhibition for the following entry. Cc1ccc(S(=O)(=O)N(C)c2ccc(OCC(=O)Nc3ccc(C(=O)N(C)C)cc3)cc2)cc1C
Reply text: -1.34

Inquiry: Look up and state reported inhibition for COc1cc(C(C)=O)ccc1OCC(O)Cn1nc(C)c(Br)c1C (stereo not given)
Reply text: 3.09

Inquiry: Specify measured inhibition for CC(C)NC(=O)c1cnc(N2CCN(c3ccccn3)CC2)c2ccccc12 .
Reply text: -4.73

More entries:
Inquiry: Check the records and state inhibition for CCN(c1ccccc1)S(=O)(=O)c1ccc(C(=O)Nc2nnc(-c3ccco3)o2)cc1
Reply text: 12.1

Inquiry: Identify measured inhibition associated with COc1ccc(-c2cc(=Nc3c(C)n(C)n(-c4ccccc4)c3=O)c3ccccc3o2)cc1
Reply text: 35.5

====

Below, each entry is listed with its recorded inhibition.
Assay: M. tuberculosis growth inhibition, HTS (AID 449762);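 also: bacterial growth assessed after seven days of incubation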
Settings: M. tuberculosis H37Rv growth inhibition, 7H9 media; at 25 µM; hits give high values
In all, about 330,000 compounds went through this assay and about 1,900 (0.58%) were called active. Not shown: some 4% with an inconclusive outcome. Only a sample is shown. Measured potencies and affinities stand elsewhere.
Write it as a number; the unit % goes unstated.

Below, each entry is followed by its recorded inhibition result.
Inquiry: Indicate the recorded inhibition value for this molecule: COC(=O)C1=C(c2ccc(S(C)(=O)=O)cc2)C[C@@H]2CC[C@H]1N2C(=O)N1CCCCC1
Reply text: 3.7

Inquiry: # return recorded inhibition for input Cc1cnc(CN(C)C(=O)CC2C(=O)NCCN2CCCc2ccccc2)[nH]1 (centres undefined)
Reply text: -8.51

Inquiry: // fetch inhibition given entry Cc1nc(-c2ccccc2)sc1C1(C)CC(c2ccc(OC(F)(F)F)cc2)=NO1 (centres undefined)
Reply text: 1.65

Inquiry: State its inhibition: Cc1nc(NC(=O)c2ccccc2)sc1C1(C)CC(c2ccccc2F)=NO1 (centres undefined)
Reply text: -0.28

Inquiry: Indicate its recorded inhibition; the molecule in question is CCC1CCCCN1Cc1nc2c(c(=O)n(C)c(=O)n2C)n1CCC(C)C (centres undefined)
Reply text: -0.27

Continuing:
Inquiry: Quickly give me recorded inhibition for CCOC(=O)c1c(NC(=O)OC)sc(C(=O)N(CC)CC)c1C
Reply text: 10.1

Inquiry: Please look at this molecule and report its inhibition: O=C(Nc1ccc(F)c(F)c1)C1CCN(S(=O)(=O)c2cccc3nonc23)CC1
Reply text: -5.72

Inquiry: For the molecule COc1cccc(-c2c(-c3cc(OC)cc(OC)c3)n(C)c3ccc(-c4cnc(N5CCOCC5)nc4)cc23)c1 , give its reported inhibition.
Reply text: 6.76

Inquiry: For the molecule COc1cc(OC)cc(-c2c(C#Cc3ccsc3)c3cc(-c4ccc(CN5CCOCC5)cc4)ccc3n2C)c1 , report inhibition.
Reply text: 1.54

====

Assay: M. tuberculosis growth inhibition, HTS (AID 449762);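 also: bacterial growth assessed after seven days of incubation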
Details: M. tuberculosis H37Rv growth inhibition, 7H9 media; at 25 µM; hits give high values
Screen size: about 330,000 compounds; about 1,900 (0.58%) were called active. Not shown: some 4% with an inconclusive outcome. These entries were drawn from the full list. Entries with a potency or affinity are not part of this list.
measurement.type: inhibition (%)
Write down the numeric answer in % and omit the unit.

Examples with answers:
Inquiry: Please list inhibition recorded for the compound CC(=O)Nc1cn(-c2ccccc2)nc1-c1ccccc1
Reply text: 8.61

Inquiry: Determine its reported inhibition: O=C(Nc1ccnc(-c2ccncc2)n1)c1ccc(Cl)cc1
Reply text: 11.3

Inquiry: Give the value of inhibition reported for the following: COc1ccccc1C(=O)NCCC(=O)N1CCN(c2ccccc2O)CC1
Reply text: 1.15

Inquiry: Provide measured inhibition value, entry: Cc1ccc([N+](=O)[O-])c(NC2OC(CO)C(O)C2O)c1 (stereo unspecified)
Reply text: -2.66

Inquiry: Supply reported inhibition belonging to this compound: Cc1cccc(NC(=O)c2sccc2-n2cccc2)c1C
Reply text: 6.88

Inquiry: Fill in reported inhibition for this entry: Cc1ccc(NC(=O)c2sccc2-n2cccc2)c(Cl)c1
Reply text: 4.85

Inquiry: # return recorded inhibition for entry CC1=NN2C(=N)/C(=C\c3cc(C)n(-c4ccccc4)c3C)C(=O)N=C2S1
Reply text: -0.68

Inquiry: Fill in reported inhibition for this entry: Cc1ccc(-c2nc(N=Nc3ccc(O)cc3)n[nH]2)cc1
Reply text: 4.83

Inquiry: Please report inhibition for the following compound: COCCNC(=O)/C(C#N)=C/c1c(N2CCN(c3cccc(Cl)c3)CC2)nc2c(C)cccn2c1=O
Reply text: 8.89

Inquiry: For COc1ccc(Cn2c(=O)[nH]c3cc(C(=O)NCCCN4CCCCC4)ccc3c2=O)cc1 , write its inhibition.
Reply text: -8.19

Next:
Inquiry: Return inhibition for the following compound: Cc1ccc2c(c1)c1c(n2C)C(C(N)=O)CCC1 (stereo unspecified)
Reply text: -14.2
